system: Haemophilus influenzae; assay: Susceptibility (MIC/MBC) of H. influenzae clinical isolates; assay type: cell-based; details: H. influenzae isolates of Table 6; nanoemulsion values as μg CPC/ml or μg BA/ml
metric_name: MIC Range

• CC[C@H]1OC(=O)[C@H](C)[C@@H](O[C@H]2C[C@@](C)(OC)[C@@H](O)[C@H](C)O2)[C@H](C)[C@@H](O[C@@H]2O[C@H](C)C[C@H](N(C)C)[C@H]2O)[C@](C)(O)C[C@@H](C)CN(C)[C@H](C)[C@@H](O)[C@]1(C)O [azithromycin] = 1 to 8 µg/mL
• CN(C)[C@@H]1C(O)=C(C(N)=O)C(=O)[C@@]2(O)C(O)=C3C(=O)c4c(O)cccc4[C@@](C)(O)[C@H]3C[C@@H]12 [Tetracycline] = 0.5 to 16 µg/mL
• CO/N=C(\C(=O)N[C@@H]1C(=O)N2C(C(=O)[O-])=C(C[N+]3(C)CCCC3)CS[C@H]12)c1csc(N)n1 [Cefepime] = 0.0625 to 1 µg/mL
• CCC[C@@H]1C[C@@H](C(=O)N[C@@H]([C@H]2O[C@H](SC)[C@H](O)[C@@H](O)[C@H]2O)[C@H](C)Cl)N(C)C1 [clindamycin] = 4 to 16 µg/mL
